Taken from PubChem BioAssay (NCI).

# Tested on: BT-549 breast
# measurement protocol: NCI tumour cell line growth inhibition, 48 h; in the data active means GI50 below about 0.43 µM; inactive means the rest
Give your call using only these classes: true (1) for active, false (0) for inactive

Just curious, what result did CO[C@H](C(=O)[C@@H](O)[C@@H](C)O)[C@@H]1Cc2cc3cc(O[C@H]4C[C@@H](O[C@H]5C[C@@H](O)[C@H](O)C(C)O5)[C@H](O)C(C)O4)c(C)c(O)c3c(O)c2C(=O)[C@H]1O[C@H]1C[C@@H](O[C@H]2C[C@@H](O[C@H]3C[C@](C)(O)C(=O)C(C)O3)[C@@H](O)C(C)O2)[C@H](O)C(C)O1 (stereo partly specified) get here? true (1)

Tell me the assay call for "Clc1ccc2c(NCCCCNc3nc(N4CCCCC4)nc4ccccc34)ccnc2c1" please. false (0)

Assay result, entry CCC(CO)Nc1nc2ccc(Cl)cc2c2ccccc12 (stereo unspecified) — outcome? false (0)

# outcome recorded in this test, key = "O=C(Nc1ccccc1)NS(=O)(=O)c1ccc(-n2nc3c(c2-c2cccs2)Cc2ccccc2-3)cc1" false (0)

Given "Cc1ccc(C(=O)/C(=C/c2ccc([N+](=O)[O-])cc2)SCc2ccc(Cl)cc2)cc1" , state the outcome it received in this test. false (0)

Please indicate how the test categorized CSc1nc2c(c(=O)[nH]1)N=C1c3ccccc3C(=O)C1C(c1ccccc1)N2 (stereo unspecified) . false (0)

---

# Tested on: HOP-62 NSCLC
# measurement protocol: NCI tumour cell line growth inhibition, 48 h
Record form. Attribute: TGI. Fill in for each entry.

[[record]]
compound = "O=C(N/C(=C\\c1ccc(/C=C(\\NC(=O)c2ccccc2)c2nc3cc([N+](=O)[O-])ccc3[nH]2)cc1)c1nc2cc([N+](=O)[O-])ccc2[nH]1)c1ccccc1"
attribute_measured = "TGI"
result = "> 100 µM"


# map each compound to its TGI
1. Cc1ccc(NC2=C(Cl)C(=O)N(Cc3ccccc3)C2=O)cc1O
2. Nc1cccc2cc(Cl)cnc12
3. CSc1nc2c(c(=O)[nH]1)N=C1c3ccccc3C(=O)C1C(c1ccccc1)N2 (centres undefined)

["> 100 µM", "> 100 µM", "> 100 µM"]

I would be grateful if you could provide TGI for each of the following entries.
1. CNS(=O)(=O)NNS(=O)(=O)c1ccc2ccccc2c1
2. Cn1cnc([N+](=O)[O-])c1Sc1nnc(-c2cccnc2)n1C
3. COc1cc2c(cc1OC)-c1c3cc(O)ccc3nn[n+]1CC2
4. Cc1cn(C2CC(N(O)C(N)=O)C(CO)O2)c(=O)[nH]c1=O (centres undefined)
5. Cc1ccc(C(=O)/C(=C/c2ccc([N+](=O)[O-])cc2)SCc2ccc(Cl)cc2)cc1
6. COc1ccc(C(OCC2OC(n3cc(C)c(=O)[nH]c3=O)CC2n2cc(Cn3cc(I)c(=O)[nH]c3=O)nn2)(c2ccccc2)c2ccccc2)cc1 (centres undefined)

1. > 100 µM
2. > 100 µM
3. > 100 µM
4. > 100 µM
5. > 100 µM
6. > 100 µM

---

# Test system: EKVX NSCLC
# measurement protocol: NCI tumour cell line growth inhibition, 48 h
attribute measured: TGI (µM)
Give bare numbers, in µM.

[[record]]
molecule = "COC(=O)c1cc2c(n1S(=O)(=O)c1ccc(C)cc1)C(=O)C(=O)c1[nH]cc(C(=O)OCc3ccccc3)c1-2"
readout_units = "µM"
result_number = 0.665

[[record]]
molecule = "Cc1cc(I)cc(CN(C)CCCCN2CCCCC2)c1O"
readout_units = "µM"
result_number = 87.3


# evaluate next
Looking up CCCCOC(=O)C1OC(O[C@H]2CCC3(C)C(CCC4(C)C3CC=C3C5CC(C)(C)CCC5(C(=O)O)CC[C@]34C)C2(C)C)C(OC2OC(CO)C(O)C(O)C2O)C(OC2OC(CO)C(O)C(O)C2O)C1O (some centres undefined) , I see its TGI listed as 49.7
